In this section, each of the molecules is paired with its reported pIC50.
# EXPERIMENTAL_SYSTEM: hDM21-188 (hDM2) (Homo sapiens, UniProt Q00987)
# Sequence (Q00987 1-188 limits assumed): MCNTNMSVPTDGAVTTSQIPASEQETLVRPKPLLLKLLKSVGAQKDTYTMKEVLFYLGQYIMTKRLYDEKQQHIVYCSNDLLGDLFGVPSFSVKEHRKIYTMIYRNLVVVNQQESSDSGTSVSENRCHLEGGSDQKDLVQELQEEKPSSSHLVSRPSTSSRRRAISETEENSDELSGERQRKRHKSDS
# ASSAY_PROCEDURE: Competition fluorescence polarization (cFP) assay, inhibition of p53AD^Flu·hDM2 complexation
# Assay type: binding
# RUN_CONDITIONS: competition FP, unlabeled ligand
pIC50: −log10 of the molar value.

COMPOUND_STRUCTURE: CC(C)C[C@H](N)CC(=O)N[C@@H](CCC(=O)O)CC(=O)N[C@H](CC(=O)N[C@H](CC(=O)N[C@@H](CCCN)CC(=O)N[C@H](CC(=O)N[C@H](CC(=O)N[C@@H](CCC(=O)O)CC(=O)O)Cc1ccccc1)C(C)C)Cc1c[nH]c2ccccc12)C(C)C
pIC50: 4.09
--
COMPOUND_STRUCTURE: CC(C)[C@@H](CC(=O)N[C@H](CC(=O)N[C@@H](CCC(=O)O)CC(=O)O)Cc1ccccc1)NC(=O)C[C@H](CCCN)NC(=O)C[C@H](C)NC(=O)C[C@@H](NC(=O)C[C@H](CCC(=O)O)NC(=O)C[C@H](C)NC(=O)C[C@@H](NC(=O)C[C@@H](N)CCCN)C(C)C)C(C)C
pIC50: 2.77
